The measurements presented in this section are drawn from patent US6339064B1.

Listed molecules paired with reported Porcine Smooth Muscle Cell Antiproliferation, % at 50 μM
- Tested on: Porcine Smooth Muscle Cell
- Test Name: Effects of compounds on cell proliferation using 3H thymidine incorporation (porcine smooth muscle cell antiproliferation)
- Type: cell-based
- Details: at 50 μM, control (100%) = maximally stimulated cells
# unit: % at 50 | format: bare number

Molecule	Readout Unit	Observed Value
CCCCOc1ccc(C(=O)NC2OC(CO)C(OC3OC4COC(c5ccccc5)OC4C(O)C3O)C(O)C2O)cc1Cl.O (stereo not drawn)	% at 50	35
N#CCCCOc1ccc(C(=O)NC2OC(CO)C(OC3OC4COC(c5ccccc5)OC4C(O)C3O)C(O)C2O)cc1[N+](=O)[O-] (stereo not drawn)	% at 50	4
N#CCCCOc1ccc(C(=O)NC2OC(CO)C(OC3OC4COC(c5ccccc5)OC4C(O)C3O)C(O)C2O)cc1Cl (stereo not drawn)	% at 50	30

Param readout= Porcine Smooth Muscle Cell Antiproliferation, % at 50 μM; system= Porcine Smooth Muscle Cell; entry= COc1ccc(CC(=O)NC2OC(CO)C(OC3OC4COC(c5ccccc5)OC4C(O)C3O)C(O)C2O)cc1OC (stereo not drawn) ; returns value. 0

Same question for CC(=O)OC1C(NC(=O)c2ccc(OCCCC#N)c(Cl)c2)OC(COC(=O)c2ccccc2)C(OC2OC3COC(c4ccccc4)OC3C(OC(C)=O)C2OC(C)=O)C1OC(C)=O (stereo not drawn) please. 33

Similarly, O=C(N[C@@H]1O[C@H](CO)[C@@H](O[C@H]2O[C@@H]3COC(c4ccccc4)O[C@H]3[C@H](O)[C@H]2O)[C@H](O)[C@H]1O)c1cccc(C(F)(F)F)c1 (stereo partly drawn) ? 15

* * *

- Tested on: Porcine Smooth Muscle Cell
- Test Name: Effects of compounds on cell proliferation using 3H thymidine incorporation (porcine smooth muscle cell antiproliferation)
- Type: cell-based
- Details: Sus scrofa, serum/growth factor stimulated cells, 24-36 h incubation
Assay Metric: IC50 (µM)
The answer is to be given in µM; state only the numeric part.

Recorded IC50, per entry:
CC(=O)OC[C@H]1O[C@@H](NC(=O)c2ccc(Cl)c(N)c2)[C@H](OC(C)=O)[C@@H](OC(C)=O)[C@@H]1O[C@H]1O[C@H](COC(C)=O)[C@@H](OC(C)=O)[C@H](OC(C)=O)[C@H]1OC(C)=O 11.1
COc1cc(C(=O)N[C@@H]2O[C@H](COC(C)=O)[C@@H](O[C@H]3O[C@H](COC(C)=O)[C@@H](OC(C)=O)[C@H](OC(C)=O)[C@H]3OC(C)=O)[C@H](OC(C)=O)[C@H]2OC(C)=O)ccc1Cl 18.5
CC(=O)Nc1cc(C(=O)N[C@@H]2O[C@H](COC(C)=O)[C@@H](O[C@H]3O[C@H](COC(C)=O)[C@@H](OC(C)=O)[C@H](OC(C)=O)[C@H]3OC(C)=O)[C@H](OC(C)=O)[C@H]2OC(C)=O)ccc1Cl 54.3

// switching to the query compound
Need IC50, item CCCCOc1ccc(C(=O)N[C@@H]2O[C@H](COC(C)=O)[C@@H](O[C@H]3O[C@H](COC(C)=O)[C@@H](OC(C)=O)[C@H](OC(C)=O)[C@H]3OC(C)=O)[C@H](OC(C)=O)[C@H]2OC(C)=O)cc1Cl 3.5

* * *

- Test system: Porcine Smooth Muscle Cell
- Test Name: Effects of compounds on cell proliferation using 3H thymidine incorporation (porcine smooth muscle cell antiproliferation)
- Format: cell-based
- Details: at 50 μM, control (100%) = maximally stimulated cells
Assay Metric: Porcine Smooth Muscle Cell Antiproliferation, % at 50 μM (% at 50)
Field: numeric (% at 50). Do not append units.

Examples from the recorded data:
Molecule	Tgt	Readout Unit	Observed Value
CC(=O)OC[C@H]1O[C@@H](NC(=O)Cc2ccc(O)c([N+](=O)[O-])c2)[C@H](OC(C)=O)[C@@H](OC(C)=O)[C@@H]1O[C@H]1O[C@H](COC(C)=O)[C@@H](OC(C)=O)[C@H](OC(C)=O)[C@H]1OC(C)=O [Example 48]	Porcine Smooth Muscle Cell	% at 50	37
CC(=O)OC1C(NC(=O)c2ccc(OCCCC#N)c([N+](=O)[O-])c2)OC(COC(=O)c2ccccc2)C(OC2OC3COC(c4ccccc4)OC3C(OC(C)=O)C2OC(C)=O)C1OC(C)=O (centres unmarked) [Example 31]	Porcine Smooth Muscle Cell	% at 50	15
CC(=O)OCC1OC(NC(=O)c2ccc(OCCCC#N)c([N+](=O)[O-])c2)C(OC(C)=O)C(OC(C)=O)C1OC1OC(COC(C)=O)C(OC(C)=O)C(OC(C)=O)C1OC(C)=O (centres unmarked) [Example 28]	Porcine Smooth Muscle Cell	% at 50	3
O=C(N[C@@H]1O[C@H](CO)[C@@H](O[C@H]2O[C@@H]3COC(c4ccccc4)O[C@H]3[C@H](O)[C@H]2O)[C@H](O)[C@H]1O)c1ccc(Cl)cc1 (some centres unmarked) [Example 11]	Porcine Smooth Muscle Cell	% at 50	15

Next up:
Quick check: Porcine Smooth Muscle Cell Antiproliferation, % at 50 μM of CCCCOc1c(Cl)cc(C(=O)N[C@@H]2O[C@H](CO)[C@@H](O[C@H]3O[C@@H]4COC(c5ccccc5)O[C@H]4[C@H](O)[C@H]3O)[C@H](O)[C@H]2O)cc1OC.O (some centres unmarked) [Example 26] ? 32

* * *

- Test system: Porcine Smooth Muscle Cell
- Test Name: Effects of compounds on cell proliferation using 3H thymidine incorporation (porcine smooth muscle cell antiproliferation)
- Assay type: cell-based
- Details: at 50 μM, control (100%) = maximally stimulated cells
Assay Metric: Porcine Smooth Muscle Cell Antiproliferation, % at 50 μM (% at 50)
Lab book: enter the figure in % at 50, no units written.

These recorded examples may help you get a feel for the data.
Compound	Tgt	Observed Value
CC(=O)OC[C@H]1O[C@@H](NC(=O)c2ccc(OCCCC#N)c(N)c2)[C@H](OC(C)=O)[C@@H](OC(C)=O)[C@@H]1O[C@H]1O[C@H](COC(C)=O)[C@@H](OC(C)=O)[C@H](OC(C)=O)[C@H]1OC(C)=O [Example 32]	Porcine Smooth Muscle Cell	10
COc1cc(C(=O)NC2OC(CO)C(OC3OC4COC(c5ccccc5)OC4C(O)C3O)C(O)C2O)ccc1Cl (centres unmarked) [Example 23]	Porcine Smooth Muscle Cell	2
O=C(NC1OC(CO)C(OC2OC3COC(c4ccccc4)OC3C(O)C2O)C(O)C1O)c1ccc(Cl)c([N+](=O)[O-])c1 (centres unmarked) [Example 5]	Porcine Smooth Muscle Cell	37
CCCCOc1c(Cl)cc(C(=O)NC2OC(COC(=O)c3ccccc3)C(OC3OC4COC(c5ccccc5)OC4C(O)C3O)C(O)C2O)cc1OC (centres unmarked) [Example 27]	Porcine Smooth Muscle Cell	45

Pending compound:
Fill in the recorded Porcine Smooth Muscle Cell Antiproliferation, % at 50 μM for this compound, with Porcine Smooth Muscle Cell as test system: CC(=O)Nc1cc(C(=O)N[C@@H]2O[C@H](COC(C)=O)[C@@H](O[C@H]3O[C@H](COC(C)=O)[C@@H](OC(C)=O)[C@H](OC(C)=O)[C@H]3OC(C)=O)[C@H](OC(C)=O)[C@H]2OC(C)=O)ccc1OCCCC#N [Example 33] 0
